Record form. Attribute: % Inhibition. Fill in for each entry.
- Tested on: P. falciparum stage V gametocytes
- Design: BacTiter-Glo ATP luminescence viability of purified stage V gametocytes in 384-well plates, per cent inhibition versus DMSO
- Study Conditions: 48 h, 5 µM; inhibitor
Hit rate of the full screen: of about 13,000 compounds, about 3,200 (25%) showed an effect of 50% or more. The list shows a part of the results.
One number for each entry, in %.

Use these answered entries as a reference point.
Compound	Units Symbol	% Inhibition
Cn1cncc1-c1ccc2ncnc(Nc3ccc(OCc4ccccc4)cc3)c2c1 [TCMDC-137504]	%	-32.31
N=c1n(Cc2ccccc2)c2ccccc2n1CC(O)c1ccc(Cl)c(Cl)c1 (centres unmarked) [TCMDC-124061]	%	50.12

# map each compound to its % Inhibition
1. COC(=O)C(C)(C)Cc1c(SC(C)(C)C)c2cc(C(C)C)ccc2n1Cc1ccc(Cl)cc1 [TCMDC-131973]
2. C=CCn1c(=N)n(CC(O)c2ccc(Cl)c(Cl)c2)c2ccccc21 (centres unmarked) [TCMDC-125726]
3. CCc1ccc(NC(=O)c2cccc(CN3CCCN(Cc4cccc(O)c4)CC3)c2)cc1 [TCMDC-135989]

A)
5.735
57.07
-33.27

---

- Tested on: P. falciparum stage V gametocytes
- Design: BacTiter-Glo ATP luminescence viability of purified stage V gametocytes in 384-well plates, per cent inhibition versus DMSO
- Study Conditions: 48 h, 5 µM; inhibitor
About 3,200 (25%) of roughly 13,000 compounds showed an effect of 50% or more. The list shows a part of the results.
Record form. Attribute: % Inhibition. Fill in for each entry.
One number for each entry, in %.

Smiles Structure	% Inhibition (%)
Clc1ccc(-c2ccc(C=NNc3nc(Nc4ccccc4)nc(Nc4ccccc4)n3)o2)cc1Cl	3.438
O=C(O[C@H]1CN[C@H](C#Cc2cc3ncnc(Nc4ccc5c(ccn5S(=O)(=O)c5cccs5)c4)c3s2)C1)N1CCOCC1	26.92

Shift focus to the following entry.
Q) Jot down % Inhibition (P. falciparum stage V gametocytes) of CCOc1ccc(Cc2c(C)nc3nc(N)nc(N)c3c2C)cc1 .
A) 8.912

---

Record form. Attribute: % Inhibition. Fill in for each entry.
- Test system: P. falciparum stage V gametocytes
- Design: BacTiter-Glo ATP luminescence viability of purified stage V gametocytes in 384-well plates, per cent inhibition versus DMSO
- Study Conditions: 48 h, 5 µM; inhibitor
In all, about 13,000 compounds went through this assay and about 3,200 (25%) showed an effect of 50% or more. The list shows a part of the results.
Answers are plain numbers, in %.

Use these answered entries as a reference point.
Compound	% Inhibition / %
CC(C)(C)C(Cn1ccnc1)NCc1cn[nH]c1-c1ccc(-c2ccccc2)cc1 (centres unmarked)	18.54
Cc1cccc2nc(-c3ccc(-c4cccc(CN5CCCC(N)C5)c4)s3)[nH]c12.O=C(O)C(F)(F)F (centres unmarked)	63.62
CCOc1cccc(C2c3c(oc4ccccc4c3=O)C(=O)N2CCN(CC)CC)c1 (centres unmarked)	-6.195
Cc1cccc2nc(-c3ccc(-c4cccc(CN5CCN(CCN6CCOCC6)CC5)c4)s3)[nH]c12.O=C(O)C(F)(F)F	7.217

Shift focus to the following entry.
Q) For the compound Cc1cccc2nc(-c3ccc(-c4cccc(CN5CCC(CO)CC5)c4)s3)[nH]c12.O=C(O)C(F)(F)F , give its measured % Inhibition value.
A) 24.91

---

- Test system: P. falciparum stage V gametocytes
- Parameters: BacTiter-Glo ATP luminescence viability of purified stage V gametocytes in 384-well plates, per cent inhibition versus DMSO
- Study Conditions: 48 h, 5 µM; inhibitor
Screen size: about 13,000 compounds; about 3,200 (25%) showed an effect of 50% or more. This is one part of the list.
Record form. Attribute: % Inhibition. Fill in for each entry.
One number for each entry, in %.

Use these answered entries as a reference point.
Compound	Readout Label	Observed Value
CCOc1cc(C)ccc1C1CCN(CCCCNC(=O)c2cccc(-c3ccc(C(F)(F)F)cc3)c2)CC1	% Inhibition	29.59
CCn1c(-c2nonc2N)nc2cnc(Oc3cccc(NC(=O)c4ccc(OCCN5CCCCC5)cc4)c3)cc21	% Inhibition	-14.59
O=C(NCc1ccc(C(=O)N2CCC(N3CCCCC3)CC2)cc1)c1cc(-c2cccc(C(F)(F)F)c2)ccc1O	% Inhibition	-1.594
CCOC(=O)c1cnc2c(C(F)(F)F)cccc2c1Nc1ccc(O)cc1	% Inhibition	-55.53
COc1ccccc1C1CCN(CCN2CCC(NC(=O)c3ccc(-c4ccc(C#N)cc4)cc3)CC2)CC1	% Inhibition	-25.62

# map each compound to its % Inhibition
1. CC(C)n1ncc2c(C(=O)Nc3ccc(C#N)c(Cl)c3)cc(C3CC3)nc21
2. COc1cccc(C2CCN(CCN3CCC(NC(=O)c4ccc(-c5ccc(Cl)cc5)cc4)CC3)CC2)c1
3. COc1cc(CN2CCC(C(=O)Nc3ccc(-c4cccc(C)c4)cc3)CC2)ccc1O
4. CCOCCCNc1sc(S(=O)(=O)c2ccccc2)nc1S(=O)(=O)c1ccc(C)cc1

A)
1. -17.87
2. -13.87
3. 46.38
4. 20.27

# map each compound to its % Inhibition
1. CC1CN(c2ccc3occ(C(=O)Nc4ccc(-c5ccncc5)c(Cl)c4)c3c2)CC(C)N1C (centres unmarked)
2. Oc1ccc(Cl)cc1Nc1nc(C(F)(F)F)nc2ccccc12
3. Cc1cc2ccccc2n1CC(=O)N1CC(C(=O)N2CCCCC2)Oc2ccccc21 (centres unmarked)
4. COc1cccc(C2CCN(CCN3CCC(NC(=O)c4ccc(-c5ccc(C(F)(F)F)cc5)cc4)CC3)CC2)c1
5. CCn1c(-c2nonc2N)nc2c(-c3cc4ccccc4s3)ncc(C(=O)N3CCC(N)C3)c21 (centres unmarked)

A)
38.63
-61.42
84.5
18.98
101.1

---

Record form. Attribute: % Inhibition. Fill in for each entry.
- Tested on: P. falciparum stage V gametocytes
- Parameters: BacTiter-Glo ATP luminescence viability of purified stage V gametocytes in 384-well plates, per cent inhibition versus DMSO
- Study Conditions: 48 h, 5 µM; inhibitor
Among all 13,000 compounds or so, about 3,200 (25%) showed an effect of 50% or more. This is one part of the list.
Just so you know, I need the unit written after the number.

Use these answered entries as a reference point.
Molecule	% Inhibition
CN1CCN(c2ccc(Nc3c(C(N)=O)cnc4cc(-c5ccoc5)ccc34)cc2C(F)(F)F)CC1.Cl [TCMDC-135443]	2.768%
CN1N=C2c3ccccc3CCC2C1c1ccc(C#N)cc1 (stereo not drawn) [TCMDC-123771]	-59.69%

# map each molecule to its % Inhibition
1. Cn1cncc1C(=O)Nc1cccc(-c2ccc(-c3nc4cc(F)ccc4[nH]3)s2)c1 [TCMDC-137066]
2. Cc1cc(N[C@@H](CC(C)C)C(=O)NCc2cccs2)nc(NCCc2cccs2)n1 [TCMDC-134815]

A)
1: 61.93%; 2: 136.3%

# map each molecule to its % Inhibition
1. Cc1cc(N[C@@H](CC(C)C)C(=O)NCc2cccs2)nc(NCCc2ccccc2)n1 [TCMDC-134779]
2. Cc1cc(N[C@@H](CC(C)C)C(=O)NCc2cccs2)nc(Nc2ccccc2)n1 [TCMDC-134739]

A)
1: 68.3%; 2: -4.41%

---

Record form. Attribute: % Inhibition. Fill in for each entry.
- Tested on: P. falciparum stage V gametocytes
- Parameters: BacTiter-Glo ATP luminescence viability of purified stage V gametocytes in 384-well plates, per cent inhibition versus DMSO
- Study Conditions: 48 h, 5 µM; inhibitor
Among all 13,000 compounds or so, about 3,200 (25%) showed an effect of 50% or more. The list shows a part of the results.
Give bare numbers, in %.

Use these answered entries as a reference point.
Compound	% Inhibition, %
CN1CCN(c2nsc3ccc(-c4ccc(NC(=O)Nc5ccccc5)cc4)cc23)CC1 [TCMDC-133437]	50.88
Cn1c(NCc2cc(F)cc3c2OCOC3)nc2cc(Nc3ccnc(Nc4cccc(CS(C)(=O)=O)c4)n3)ccc21 [TCMDC-134151]	-2.358
Cc1ccc(Nc2nccc(Nc3ccc4c(C)[nH]nc4c3)n2)cc1F [TCMDC-138542]	-63.2
Cc1ccc(Nc2nccc(Nc3ccc4c(c3)nc(Nc3cc(C(C)(C)C)on3)n4C)n2)cc1S(C)(=O)=O [TCMDC-141889]	96.33
c1ccc2c(c1)CN(Cc1cc3ccccc3[nH]1)CC1(CCN(Cc3c[nH]c4cnccc34)CC1)O2 [TCMDC-133376]	66.92
CN(c1ccc2c(c1)nc(Nc1cc(C(C)(C)C)on1)n2C)c1ccnc(Nc2ccc(CS(C)(=O)=O)cc2)n1 [TCMDC-141892]	-9.766
Fc1ccc(-c2cc3ncnc(N4CCN(CCN5CCCC5)CC4)c3s2)cc1 [TCMDC-125053]	6.032
COc1ccccc1-n1c(SCC(=O)Nc2ccccc2F)nc2cccnc21 [TCMDC-123647]	7.521

# map each compound to its % Inhibition
1. O=C(Nc1ccc(-c2ccc(-c3nc4ccc(C(F)(F)F)cc4[nH]3)cc2)cc1)Nc1ccc(F)c(F)c1F [TCMDC-133223]
2. CN(C)Cc1ccc(CN2CCN(CCOc3ccc(-c4ccc(Cl)cc4)cc3)CC2)o1 [TCMDC-138673]
3. Cn1c(Nc2cc(C(C)(C)C)on2)nc2cc(Nc3ccnc(Nc4ccc(CS(C)(=O)=O)cc4)n3)ccc21 [TCMDC-141890]

A)
1. -19.68
2. 36.52
3. 82.06
